Values from patent US20250144067A1

Test system: NCI-H292 lung cancer cells
method-description: FDA drug screening, complete media vs cholesterol-free media without statin (TABLE 1)
Type: cell-based, human
Counter-ions that a name gives are not always drawn.
parameter: Cholesterol-free
API note: the answer field is a bare number with no unit suffix.

Sample COc1cccc(N(C)C(=S)Oc2ccc3c(c2)CCCC3)n1 [Liranaftate] , system: NCI-H292 lung cancer cells. Its Cholesterol-free is 1.279

Further cases:
Simply: "Clc1ccc2c(c1)CCc1cccnc1C2=C1CCNCC1" , NCI-H292 lung cancer cells, Cholesterol-free = 1.114

Response field Cholesterol-free (NCI-H292 lung cancer cells) for item N#Cc1ccc(C2CCCc3cncn32)cc1 (centres unmarked) [Fadrozole hydrochloride] : 1.643

Form: item "Cc1ccc(C(=O)Nc2ccc(CN3CCN(C)CC3)c(C(F)(F)F)c2)cc1C#Cc1cnc2cccnn12" ; test system NCI-H292 lung cancer cells; Cholesterol-free: 0.1141

Entry NC1=NCC2c3ccccc3Cc3ccccc3N12 (centres unmarked) [Epinastine (hydrochloride)] ; assay system NCI-H292 lung cancer cells; Cholesterol-free recorded at 1.415

Measured Cholesterol-free (NCI-H292 lung cancer cells), entry "OCc1ccc(O[C@@H]2O[C@H](CO)[C@@H](O)[C@H](O)[C@H]2O)cc1" : 1.466

Field Cholesterol-free (NCI-H292 lung cancer cells), entry "CCCSc1ccc2nc(NC(=O)OC)[nH]c2c1" : 0.9001

Summary: CCN1CCCC(OC(=O)C(c2ccccc2)c2ccccc2)C1 (centres unmarked) [Piperidolate] , NCI-H292 lung cancer cells, Cholesterol-free = 1.19

NCI-H292 lung cancer cells data for "Cc1nnc(C(=O)NC(C)(C)c2nc(C(=O)NCc3ccc(F)cc3)c(O)c(=O)n2C)o1" ; its Cholesterol-free: 1.135

Value (Cholesterol-free, NCI-H292 lung cancer cells) for record O=C(OCC(O)CO)c1ccccc1Nc1ccnc2cc(Cl)ccc12 (centres unmarked) [Glafenine (hydrochloride)] = 1.367
